Cited source: BindingDB's records for doi:10.1021/jm00126a013

experimental target: Vesicular acetylcholine transporter (Torpedo californica)
assay notes: Inhibition of active transport of [3H]acetylcholine using purified Torpedo californica synaptic vesicles
measured endpoint: IC50 (nM)
Numbers only, in nM.

Please report IC50 for every entry that follows.
1. COc1ccc(N2CCN(C3CCCCC3O)CC2)cc1 (centres undefined)
2. OC1CCCCC1N1CCC(Cc2ccccc2)CC1 (centres undefined)
3. CN(Cc1ccccc1)C1CCCCC1O (centres undefined)
4. OC1CCCCC1N1CCC(CCCC2CCN(C3CCCCC3O)CC2)CC1 (centres undefined)
5. CN(CCc1ccccc1)C1CCCCC1O (centres undefined)
6. OC1CCCCC1N1CC2CCC(CC2)C1 (centres undefined)

1. 300
2. 300
3. 10000
4. 200
5. 20000
6. 20000

====

experimental target: Vesicular acetylcholine transporter (Torpedo californica)
assay notes: Inhibition of active transport of [3H]acetylcholine using purified Torpedo californica synaptic vesicles
Records here are stratified by IC50; strata: group A = under 200 nM, group B = from 200 nM up to 4000 nM, group C = 4000 nM and over

Would you please look over these solved cases?
>>> answer_label("CO[C@H]1CCC[C@@H](N2CCC(c3ccccc3)CC2)[C@@H]1O")
"group B"
>>> answer_label("CC1CN(C2CCCCC2O)CCN1c1ccccc1 (configuration not stated)")
"group B"

Pending compound:
Please report the category associated with O=C(c1ccccc1)N1CCN(C2CCCCC2O)CC1 (configuration not stated) , nothing else.
group C

====

experimental target: Vesicular acetylcholine transporter (Torpedo californica)
assay notes: Inhibition of active transport of [3H]acetylcholine using purified Torpedo californica synaptic vesicles
Hi there, I'd appreciate the recorded IC50 for every entry that follows.
Answers are plain numbers, in nM.

Please review the following examples before continuing.
>>> quantitative_readout("OC1C2CCC1C(N1CCC(c3ccccc3)CC1)C2 (stereo unspecified)")
10000
>>> quantitative_readout("SC1CCCCC1N1CCC(c2ccccc2)CC1 (stereo unspecified)")
4000
>>> quantitative_readout("O=c1[nH]c2ccccc2n1C1CCN(C2CCCCC2O)CC1 (stereo unspecified)")
1000
>>> quantitative_readout("OC1CCCC1N1CCC(c2ccccc2)CC1 (stereo unspecified)")
2000
>>> quantitative_readout("OC1CCCCC1N1CC=C(c2ccccc2)CC1 (stereo unspecified)")
200

Now examine the next entry.
IC50 reading for O=C(CCCCC1SCC2NC(=O)NC21)Nc1cccc2c1CC(N1CCC(c3ccccc3)CC1)C(O)C2 (stereo unspecified) : 100

====

experimental target: Vesicular acetylcholine transporter (Torpedo californica)
assay notes: Inhibition of active transport of [3H]acetylcholine using purified Torpedo californica synaptic vesicles
pIC50: −log10 of the molar value.
The label depends only on pIC50: Met if it is at least 6, Not met if it is smaller.

Examples from the recorded data:
>>> answer_label("CN(C)c1ccc(C2CCN(C3CCCCC3O)CC2)cc1 (stereo not drawn)")
"Met"
>>> answer_label("O=[N+]([O-])c1ccc(C2CCN(C3CCCCC3O)CC2)cc1 (stereo not drawn)")
"Met"
>>> answer_label("OCCN1CCC(c2ccccc2)CC1")
"Not met"

Check this molecule for pIC50 at or above 6: OC1CCCCC1N1CCC(CCC2CCN(C3CCCCC3O)CC2)CC1 (stereo not drawn)
Not met

In plain terms: is recorded pIC50 at least 6 for OC1CCCCC1N1CC=C(c2ccc(Cl)cc2)CC1 (stereo not drawn) ?
Met

Quick check, pIC50 >= 6? OC1CCCCC1NC1CCc2ccccc21 (stereo not drawn)
Not met

Please tell me: is the molecule OC1CCCCC1N1CCC(c2ccc(Cl)cc2)CC1 (stereo not drawn) at or over 6 in terms of pIC50?
Met

Given CNc1ccc(C2CCN(C3CCCCC3O)CC2)cc1 (stereo not drawn) , state whether its pIC50 is at least 6.
Met

Tell me whether pIC50 is at least 6 here: CCC(O)CN1CCC(c2ccccc2)CC1 (stereo not drawn)
Met

Hi team, for O=C1CCC2(O)C3Cc4ccc(O)c5c4C2(CCN3C2CCCCC2O)C1O5 (stereo not drawn) , is the recorded pIC50 at or above 6?
Not met

Quick check: does Nc1ccc(C2CCN(C3CCCCC3O)CC2)cc1 (stereo not drawn) have pIC50 greater than or equal to 6?
Met

Given Cc1ccc(C)c(N2CCN(C3CCCCC3O)CC2)c1 (stereo not drawn) , state whether its pIC50 is at least 6.
Met

Test whether the molecule OC1CCCCC1N1CCN(c2ccccc2)CC1 (stereo not drawn) records pIC50 of 6 or higher.
Met
